Each record here notes measured KL.
# protocol text: Binding affinity towards low-affinity site of Atrial natriuretic peptide receptor 1 of rabbit adrenal membrane
# Format: tissue-based

compound	KL, nM
CC[C@H](C)[C@@H]1NC(=O)[C@@H](CCCN=C(N)N)NC(=O)CNC(=O)CNC(=O)[C@@H](Cc2ccc(O)cc2)NC(=O)C(C)NC(=O)[C@H](NC(=O)[C@H](CO)NC(=O)[C@@H](N)CO)CSSC[C@H](C(=O)N[C@H](Cc2ccccc2)C(=O)N[C@H](CCCN=C(N)N)C(=O)O)NC(=O)[C@@H]([C@@H](C)CC)NC(=O)[C@H](CCCN=C(N)N)NC(=O)[C@@H](CC(=O)O)NC1=O (stereo in doubt)	10000
CC[C@H](C)[C@@H]1NC(=O)[C@@H](CCCN=C(N)N)NC(=O)CNC(=O)CNC(=O)[C@@H](Cc2ccccc2)NC(=O)CNC(=O)[C@H](NC(=O)[C@H](CO)NC(=O)[C@@H](N)CO)CSSC[C@H](C(=O)N[C@@H](Cc2ccccc2)C(=O)N[C@H](CCCN=C(N)N)C(=O)O)NC(=O)[C@@H]([C@@H](C)CC)NC(=O)[C@H](CCCN=C(N)N)NC(=O)[C@@H](CC(=O)O)NC1=O	780
CC[C@H](C)[C@@H]1NC(=O)[C@@H](CCCN=C(N)N)NC(=O)CNC(=O)CNC(=O)[C@@H](Cc2ccccc2)NC(=O)[C@@H](C)NC(=O)[C@H](NC(=O)[C@H](CO)NC(=O)[C@@H](N)CO)CSSC[C@H](C(=O)N[C@H](Cc2ccccc2)C(=O)N[C@H](CCCN=C(N)N)C(=O)O)NC(=O)[C@@H]([C@@H](C)CC)NC(=O)[C@H](CCCN=C(N)N)NC(=O)[C@@H](CC(N)=O)NC1=O	540
